All figures here come from ChEMBL document CHEMBL5126637.

Test: Toxicity in human MDA-MB-231 cells assessed as cell viability at 2.5 umol/L incubated for 24 hrs by MTT assay relative to control
Assay type: cell-based
Settings: dose 2.5 µmol/L, read-out: Activity
REPORTED_METRIC: viability at 24 h, 2.5 µM

Below are worked cases with known answers.
{"COMPOUND": "O=c1c2cc(O)c(O)cc2oc2cc(O)c([C@@H]3O[C@H](CO)[C@@H](O)[C@H](O)[C@H]3O)c(O)c12", "viability at 24 h, 2.5 µM": "> 90%"}
{"COMPOUND": "COc1cc(C2Oc3ccc([C@H]4Oc5cc(O)cc(O)c5C(=O)[C@@H]4O)cc3OC2CO)ccc1O (stereo partly drawn)", "viability at 24 h, 2.5 µM": "> 90%"}

Lab note: next compound to report on.
(Q) Give the measured viability at 24 h, 2.5 µM of O=C(/C=C/c1ccc(O)cc1)c1ccc(O)cc1O .
(A) > 90%

###

Biological target: Interstitial collagenase (Homo sapiens, UniProt P03956)
Sequence (P03956 whole entry): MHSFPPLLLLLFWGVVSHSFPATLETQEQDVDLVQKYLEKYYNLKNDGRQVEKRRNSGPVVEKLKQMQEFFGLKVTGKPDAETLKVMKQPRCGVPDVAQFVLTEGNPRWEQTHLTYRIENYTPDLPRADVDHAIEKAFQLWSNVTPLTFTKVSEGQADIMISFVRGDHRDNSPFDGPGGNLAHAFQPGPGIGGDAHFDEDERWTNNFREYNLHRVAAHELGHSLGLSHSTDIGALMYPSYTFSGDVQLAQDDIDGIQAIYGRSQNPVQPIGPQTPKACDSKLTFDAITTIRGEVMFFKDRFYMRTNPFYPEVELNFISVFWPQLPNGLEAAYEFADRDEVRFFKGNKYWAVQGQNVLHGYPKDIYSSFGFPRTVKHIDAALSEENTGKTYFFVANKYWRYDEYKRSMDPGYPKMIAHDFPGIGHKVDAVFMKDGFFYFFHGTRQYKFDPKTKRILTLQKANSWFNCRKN
Assay: Inhibition of MMP1 in human U2OS cells by peptide microarray-based fluorescence assay
REPORTED_METRIC: IC50 (nM)
Entry rule: numbers only, all in nM.

(Q) # IC50 lookup, item O=C(/C=C/c1ccc(O)cc1)c1ccc(O)cc1O [ISOLIQUIRITIGENIN]
(A) 16

###

Assay: Toxicity in human HCT-116 cells assessed as cell viability at 2.5 umol/L incubated for 24 hrs by MTT assay relative to control
Assay type: cell-based
Conditions: dose 2.5 µmol/L, read-out: Activity
We begin with a simple list: items and their reported viability at 24 h, 2.5 µM.

{"COMPOUND": "COc1cc(C2Oc3ccc([C@H]4Oc5cc(O)cc(O)c5C(=O)[C@@H]4O)cc3OC2CO)ccc1O (stereo partly drawn)", "VAL": "> 90%"}
{"COMPOUND": "O=C(/C=C/c1ccc(O)cc1)c1ccc(O)cc1O", "VAL": "> 90%"}

Here is another compound to look at.
(Q) May I ask what viability at 24 h, 2.5 µM has been recorded for O=c1c2cc(O)c(O)cc2oc2cc(O)c([C@@H]3O[C@H](CO)[C@@H](O)[C@H](O)[C@H]3O)c(O)c12 ?
(A) > 90%

###

Assay: Toxicity in human HEK293T cells assessed as cell viability at 2.5 umol/L incubated for 24 hrs by MTT assay relative to control
Type: cell-based, HEK-293T
Details: dose 2.5 µmol/L, read-out: Activity
REPORTED_METRIC: viability at 24 h, 2.5 µM

Guide cases for viability at 24 h, 2.5 µM, answers given:
{"MOLECULE": "O=c1c2cc(O)c(O)cc2oc2cc(O)c([C@@H]3O[C@H](CO)[C@@H](O)[C@H](O)[C@H]3O)c(O)c12", "viability at 24 h, 2.5 µM": "> 90%"}
{"MOLECULE": "O=C(/C=C/c1ccc(O)cc1)c1ccc(O)cc1O", "viability at 24 h, 2.5 µM": "> 90%"}

(Q) Look up viability at 24 h, 2.5 µM: COc1cc(C2Oc3ccc([C@H]4Oc5cc(O)cc(O)c5C(=O)[C@@H]4O)cc3OC2CO)ccc1O (stereo partly drawn)
(A) > 90%
